Target: Zap1 (UniProt P47043)
Sequence: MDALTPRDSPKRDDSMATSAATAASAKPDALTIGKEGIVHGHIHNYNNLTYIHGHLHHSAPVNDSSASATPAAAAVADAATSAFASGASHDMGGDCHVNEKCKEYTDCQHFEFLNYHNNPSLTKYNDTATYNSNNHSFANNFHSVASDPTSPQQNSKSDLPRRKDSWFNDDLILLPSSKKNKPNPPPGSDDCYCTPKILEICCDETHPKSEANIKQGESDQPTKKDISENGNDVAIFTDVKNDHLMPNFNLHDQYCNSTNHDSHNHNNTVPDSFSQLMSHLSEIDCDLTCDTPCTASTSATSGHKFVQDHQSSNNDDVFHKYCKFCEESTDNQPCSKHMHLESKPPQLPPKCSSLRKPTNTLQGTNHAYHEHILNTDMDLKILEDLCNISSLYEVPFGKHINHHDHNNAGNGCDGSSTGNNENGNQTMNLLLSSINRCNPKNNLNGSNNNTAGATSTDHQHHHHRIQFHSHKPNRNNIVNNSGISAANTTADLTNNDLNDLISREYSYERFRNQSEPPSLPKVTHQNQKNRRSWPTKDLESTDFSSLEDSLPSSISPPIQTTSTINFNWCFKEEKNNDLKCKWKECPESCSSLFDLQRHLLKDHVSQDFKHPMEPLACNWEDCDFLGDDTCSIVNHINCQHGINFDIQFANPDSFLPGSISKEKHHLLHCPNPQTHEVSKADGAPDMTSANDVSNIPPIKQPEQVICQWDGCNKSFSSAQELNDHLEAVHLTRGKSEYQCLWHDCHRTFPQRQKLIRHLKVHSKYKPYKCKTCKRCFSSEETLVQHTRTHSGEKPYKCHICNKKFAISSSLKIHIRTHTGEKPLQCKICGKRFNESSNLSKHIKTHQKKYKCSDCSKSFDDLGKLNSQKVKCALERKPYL
Assay: PBM E-score (8-mer binding enrichment) (E-score (-0.5 to 0.5)); higher = stronger / more preferred TF binding
Details: protein concentration: 200 nM; construct: GST-full length
Whole data set: some 33,000 sequences, median “E-score (-0.5 to 0.5)” near -0.021, cut for the highest 2% near 0.32. The full list was thinned out, with the highest values kept by preference.
# PBM E-score per entry
Answer with a number only.

Biosequence	PBM E-score
ACCCCTAC	0.293
CCCCCTAG	-0.343
AGCCCTAG	-0.14
ACCCCTAG	0.341
CAGCAGAA	-0.0338

Sure, the documented PBM E-score for `ACCCCTCT` is 0.174

Sure, the documented PBM E-score for `ACCCCTAA` is 0.278

Sure, the documented PBM E-score for `ACCCCTCG` is 0.347

Sure, the documented PBM E-score for `ACCGTAAG` is 0.101

Sure, the documented PBM E-score for `ACCGATAC` is 0.0986

Sure, the documented PBM E-score for `TCGCGAGA` is 0.117
